assay.system: human ether-à-go-go-related gene (hERG) potassium channel (human, UniProt Q12809)
Sequence (Q12809 whole entry, looked up): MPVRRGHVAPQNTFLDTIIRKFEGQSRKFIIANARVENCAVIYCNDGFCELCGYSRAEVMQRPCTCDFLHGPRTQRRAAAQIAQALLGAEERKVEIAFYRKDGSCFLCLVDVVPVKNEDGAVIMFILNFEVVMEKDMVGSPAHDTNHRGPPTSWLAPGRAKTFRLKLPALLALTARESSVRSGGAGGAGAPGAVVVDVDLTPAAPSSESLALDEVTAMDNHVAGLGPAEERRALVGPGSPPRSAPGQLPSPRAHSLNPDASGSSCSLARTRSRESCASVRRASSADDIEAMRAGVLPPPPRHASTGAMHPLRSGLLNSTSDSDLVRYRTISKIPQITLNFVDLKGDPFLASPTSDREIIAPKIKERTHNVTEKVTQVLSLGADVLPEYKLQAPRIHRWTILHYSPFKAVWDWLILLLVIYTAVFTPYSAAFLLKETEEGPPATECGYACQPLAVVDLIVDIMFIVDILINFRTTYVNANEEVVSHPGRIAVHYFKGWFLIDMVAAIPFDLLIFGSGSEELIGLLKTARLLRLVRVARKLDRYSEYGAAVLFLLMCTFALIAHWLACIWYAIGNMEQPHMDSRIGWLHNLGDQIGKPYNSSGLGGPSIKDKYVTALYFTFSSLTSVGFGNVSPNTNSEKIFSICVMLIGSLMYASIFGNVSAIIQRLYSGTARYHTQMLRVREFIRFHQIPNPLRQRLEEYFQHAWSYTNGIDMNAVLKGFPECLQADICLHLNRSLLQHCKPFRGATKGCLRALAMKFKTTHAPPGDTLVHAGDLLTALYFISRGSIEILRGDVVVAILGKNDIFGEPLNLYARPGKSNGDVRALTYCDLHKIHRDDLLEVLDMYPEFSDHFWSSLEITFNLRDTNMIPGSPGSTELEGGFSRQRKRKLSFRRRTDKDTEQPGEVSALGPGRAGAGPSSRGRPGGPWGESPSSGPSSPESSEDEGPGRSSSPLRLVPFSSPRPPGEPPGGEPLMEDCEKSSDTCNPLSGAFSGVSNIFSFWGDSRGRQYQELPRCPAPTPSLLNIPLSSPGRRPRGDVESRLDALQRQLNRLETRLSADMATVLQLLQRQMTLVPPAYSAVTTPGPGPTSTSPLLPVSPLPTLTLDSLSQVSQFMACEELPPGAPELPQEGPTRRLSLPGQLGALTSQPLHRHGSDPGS
assay.procedure: primary screen, population patch clamp on CHO cells stably expressing hERG; higher = less effect of the substance
Hit rate of the full screen: of about 310,000 compounds, about 2,200 (0.71%) showed an effect of 50% or more. Effects have a minus sign here. What follows is part of a selection rich in strong results, with near analogues and random picks from the rest.
attribute.measured: hERG current change (%, negative = inhibition) at 1uM (%)
# number only, unit % dropped from output

Could you share which hERG current change (%, negative = inhibition) at 1uM value was measured for O=C(CC1SC(=Nc2ccc(OC(F)F)cc2)N(CCN2CCOCC2)C1=O)Nc1ccc(F)cc1F (stereo not shown) ? -80.4

Which hERG current change (%, negative = inhibition) at 1uM value is on record for Cc1ccc(C(C(=O)NC2CCCC2)N(Cc2ccccc2)C(=O)c2csnn2)o1 (stereo not shown) ? 12.4

Recorded hERG current change (%, negative = inhibition) at 1uM for `CC(=O)N1CCN(c2ccccc2NC(=O)c2cc(Br)ccc2Cl)CC1` , please? -27

Entry under review: O=S(=O)(NCC(c1cccnc1)N1CCN(Cc2ccccc2)CC1)c1ccc(F)cc1 (stereo not shown) . Reported hERG current change (%, negative = inhibition) at 1uM? -42.6

Reported hERG current change (%, negative = inhibition) at 1uM for `COCCN1C(=O)N[C@H](c2cccc(C(F)(F)F)c2)C(C(=O)OC)=C1C` : what is it? 5.44

Entry O=S(=O)(NCC(c1cccnc1)N1CCN(Cc2ccccc2)CC1)c1ccc(Cl)cc1 (stereo not shown) : reported hERG current change (%, negative = inhibition) at 1uM = ? -60.6

# input compound: `O=C(Oc1coc(CSc2ncccn2)cc1=O)c1ccc(Br)o1` ; wanted: its hERG current change (%, negative = inhibition) at 1uM 11.6

For COc1ccc(S(=O)(=O)NCC(c2cccnc2)N2CCN(c3ccccc3)CC2)cc1C (stereo not shown) , what is its reported hERG current change (%, negative = inhibition) at 1uM? -1.72

For `COc1ccc(Cl)cc1C(=O)Nc1ccccc1N1CCN(C(=O)C(C)C)CC1` , what is its reported hERG current change (%, negative = inhibition) at 1uM? -19.6

Name the reported hERG current change (%, negative = inhibition) at 1uM value associated with the compound `O=C(Nc1ccccc1N1CCN(C(=O)c2ccccc2)CC1)c1ccccc1Cl` -29.8

What does the data say about its hERG current change (%, negative = inhibition) at 1uM? Entry: `CS(=O)(=O)N1CCN(c2ccccc2NC(=O)c2cc(Br)ccc2Cl)CC1` -1.64

Which value of hERG current change (%, negative = inhibition) at 1uM has been reported for `CC(=O)N1CCC(C(=O)Nc2ccccc2)(N(Cc2ccccc2)C(=O)c2cccnc2)CC1` in the records? 17.6

Please report the recorded hERG current change (%, negative = inhibition) at 1uM for `COc1ccc(Br)cc1C(=O)Nc1ccccc1N1CCN(C(=O)c2ccccc2)CC1` . 7.55

Report hERG current change (%, negative = inhibition) at 1uM for `COc1ccccc1C(=O)Nc1ccccc1N1CCN(C(=O)c2ccc(Cl)cc2)CC1` please. -85.2

Look up hERG current change (%, negative = inhibition) at 1uM: `COc1ccc(Cl)cc1C(=O)NC(=S)Nc1ccccc1N1CCOCC1` 9.75

Look up hERG current change (%, negative = inhibition) at 1uM: COc1ccc(S(=O)(=O)NCC(c2cccnc2)N2CCN(Cc3ccccc3)CC2)cc1 (stereo not shown) -26.7

I'd like to know its hERG current change (%, negative = inhibition) at 1uM. The compound in question is `Cc1cc(Cl)ccc1OCC(=O)NNC(=O)CCOc1ccccc1` -0.757

Fill in: hERG current change (%, negative = inhibition) at 1uM of `CC(=O)n1nc(-c2ccccc2)nc1NCc1cccs1` is ___ 7.45

Return reported hERG current change (%, negative = inhibition) at 1uM; argument: `CCN(CC)CCNc1ncnc2c1[nH]c1ccc(OC)cc12` -42.6
